Target: ENPP-1 (Homo sapiens)
Construct: purchased Biovendor RD172124100
Test: ENPP-1 enzyme assay with cGAMP substrate
Assay type: biochemical
Conditions: 200 pM ENPP-1, 10 μM substrate 2′3′-cGAMP, pH 7.4, 37° C., 30 minutes, Transcreener AMP2/GMP2 kit; average IC50
reportedProperty: IC50

In the examples that follow, each entry is paired with its recorded IC50.
• COc1ccc2c3cncnc3n(Cc3ccc(S(N)(=O)=O)cc3)c2c1 [Compound 48] = 1000 to 10000 nM
• CS(=N)(=O)c1ccc(Cn2c3ccccc3c3ccncc32)cc1 (centres unmarked) [Compound 1] = 1000 to 10000 nM
• COc1ccc2c(c1)c1ncncc1n2Cc1ccc(S(N)(=O)=O)cc1 [Compound 51] = < 1000 nM
• COc1ccc2c(c1)c1ncccc1n2Cc1ccc(S(N)(=O)=O)cc1 [Compound 5] = < 1000 nM

Which IC50 reading was recorded for the compound Cc1ccc2c(c1)c1ncccc1n2Cc1ccc(S(C)(=N)=O)cc1 (centres unmarked) [Compound 23] ? < 1000 nM

---

Molecular target: ENPP-1 (Homo sapiens, UniProt P22413)
Construct: purchased Biovendor RD172124100
Sequence (P22413 whole entry): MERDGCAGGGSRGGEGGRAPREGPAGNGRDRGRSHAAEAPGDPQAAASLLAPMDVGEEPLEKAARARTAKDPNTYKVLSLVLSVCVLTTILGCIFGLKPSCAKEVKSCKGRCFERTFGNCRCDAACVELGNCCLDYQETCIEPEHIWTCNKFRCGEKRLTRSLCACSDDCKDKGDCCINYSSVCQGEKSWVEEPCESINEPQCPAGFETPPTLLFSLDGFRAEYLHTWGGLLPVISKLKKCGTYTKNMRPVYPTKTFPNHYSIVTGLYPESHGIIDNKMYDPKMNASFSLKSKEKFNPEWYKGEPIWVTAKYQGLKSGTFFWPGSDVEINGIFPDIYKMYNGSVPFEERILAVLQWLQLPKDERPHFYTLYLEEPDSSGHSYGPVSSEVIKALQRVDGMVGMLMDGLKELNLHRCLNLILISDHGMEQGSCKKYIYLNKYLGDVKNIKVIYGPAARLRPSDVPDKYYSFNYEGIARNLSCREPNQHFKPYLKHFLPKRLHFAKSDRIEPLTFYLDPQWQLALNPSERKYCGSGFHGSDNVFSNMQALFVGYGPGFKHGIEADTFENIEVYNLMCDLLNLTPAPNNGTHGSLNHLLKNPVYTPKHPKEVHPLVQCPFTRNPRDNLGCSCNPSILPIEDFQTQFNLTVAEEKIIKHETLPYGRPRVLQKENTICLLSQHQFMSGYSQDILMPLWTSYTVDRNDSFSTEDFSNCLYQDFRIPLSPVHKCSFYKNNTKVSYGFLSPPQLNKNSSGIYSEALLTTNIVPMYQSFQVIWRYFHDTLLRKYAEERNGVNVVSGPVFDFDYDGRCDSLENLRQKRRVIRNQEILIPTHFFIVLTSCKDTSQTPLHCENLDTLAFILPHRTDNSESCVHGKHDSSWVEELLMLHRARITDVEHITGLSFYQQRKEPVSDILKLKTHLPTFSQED
Experiment: ENPP-1 enzyme assay with pNP-TMP substrate
Type: biochemical
Settings: 12.5 ng ENPP-1, 720 μM substrate pNP-TMP, pH 9.0, 37° C., 60 minutes, absorbance 405 nm; average IC50
Kindly state IC50 for each of the entries shown.

In the examples that follow, each entry is paired with its recorded IC50.
• COc1ccc2c(c1)c1ncccc1n2Cc1ccc(S(N)(=O)=O)cc1F = < 1000 nM
• CS(=N)(=O)c1ccc(Cn2c3ccccc3c3ccncc32)cc1 (stereo not drawn) = < 1000 nM
• COc1ccc2c(c1)c1ncccc1n2Cc1ccc(C(F)(F)P(=O)(O)O)cc1 = < 1000 nM
• COc1ccc2c(c1)c1ncccc1n2Cc1ccc(S(C)(=N)=O)cc1 (single isomer, unassigned) [Compound 10b] = < 1000 nM

// each listed compound needs a value for IC50
1. COc1cc(C)c2c(c1)c1ncccc1n2Cc1ccc(S(N)(=O)=O)cc1
2. COc1ccc2c(c1)c1ncccc1n2Cc1ccc(NS(N)(=O)=O)cc1
3. COc1cc(Cl)c2c(c1)c1ncccc1n2Cc1ccc(S(N)(=O)=O)cc1
4. CNS(=O)(=O)c1ccc(Cn2c3ccc(OC)cc3c3ncccc32)cc1

["< 1000 nM", "< 1000 nM", "< 1000 nM", "1000 to 10000 nM"]

// each listed compound needs a value for IC50
1. COc1ccc2c(c1)c1ncccc1n2Cc1ccc(P(=O)(O)O)cc1
2. Cc1ccc2c(c1)c1c(n2Cc2ccc(S(N)(=O)=O)cc2)CCCN1
3. NS(=O)(=O)c1ccc(Cn2c3ccc(Cl)cc3c3ncccc32)cc1
4. COc1ccc2c3c(n(Cc4ccc(S(N)(=O)=O)cc4)c2c1)CCCN3
5. COc1ccc2c3c(n(Cc4ccc(S(N)(=O)=O)cc4)c2c1)CCNC3=O

["< 1000 nM", "1000 to 10000 nM", "< 1000 nM", "< 1000 nM", "< 1000 nM"]

// each listed compound needs a value for IC50
1. COc1ccc2c(c1)c1ncccc1n2Cc1ccc(S(C)(=N)=O)cc1F (stereo not drawn)
2. COc1ccc2c3cncnc3n(Cc3ccc(S(N)(=O)=O)cc3)c2c1

1. < 1000 nM
2. < 1000 nM

// each listed compound needs a value for IC50
1. COc1ccc2c(c1)c1ncccc1n2Cc1ccc(S(C)(=N)=O)cc1C (stereo not drawn)
2. COc1ccc2c3c(=O)[nH]ccc3n(Cc3ccc(S(N)(=O)=O)cc3)c2c1
3. COc1cnc2c(c1)c1c(n2Cc2ccc(S(N)(=O)=O)cc2)CNCC1

1: < 1000 nM; 2: < 1000 nM; 3: > 10000 nM
